Every entry's value here was drawn from patent US20220033481A1.

- target-desc: human transferrin (human, UniProt P02787 20-698)
- Sequence (P02787 20-698 limits assumed): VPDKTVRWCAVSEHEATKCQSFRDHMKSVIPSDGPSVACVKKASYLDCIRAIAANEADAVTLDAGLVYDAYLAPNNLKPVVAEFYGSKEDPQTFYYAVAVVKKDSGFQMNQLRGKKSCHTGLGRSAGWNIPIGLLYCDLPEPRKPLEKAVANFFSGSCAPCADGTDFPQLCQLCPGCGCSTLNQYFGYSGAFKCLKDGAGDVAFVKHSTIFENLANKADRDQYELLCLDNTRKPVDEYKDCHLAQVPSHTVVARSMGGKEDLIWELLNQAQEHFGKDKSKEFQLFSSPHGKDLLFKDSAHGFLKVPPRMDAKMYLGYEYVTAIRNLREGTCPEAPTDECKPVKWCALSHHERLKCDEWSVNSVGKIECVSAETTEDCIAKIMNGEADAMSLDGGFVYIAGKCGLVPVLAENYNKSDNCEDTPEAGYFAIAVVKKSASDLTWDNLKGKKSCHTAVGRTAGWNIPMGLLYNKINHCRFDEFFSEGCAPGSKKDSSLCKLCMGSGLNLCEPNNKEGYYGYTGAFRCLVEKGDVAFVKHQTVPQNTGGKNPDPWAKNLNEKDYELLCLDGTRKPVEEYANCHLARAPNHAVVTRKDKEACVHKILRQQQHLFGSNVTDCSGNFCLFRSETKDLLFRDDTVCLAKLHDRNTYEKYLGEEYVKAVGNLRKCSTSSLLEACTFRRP
- test-name: SPR, BIAcore T200, human transferrin amine-coupled to CM5 chip, sdAb injected
measured-property: Kd (pM)
Numeric only. Scale: pM

For orientation, consider the following solved cases.
AS01274VHa-A49 (VHH, Humanized variant of AS01274, C-terminal 6xHis tag) VHH: EVQLVESGGGLVQPGGSLRLSCAASGSIASIATMAWYRQAPGKGLELVSGITRGGSTKYADSVKGRFTISRDNSKNTLYLQMNSLRAEDTAVYYCTDYSRKYYQDYWGQGTLVTVSS
110
AS01274 sdAb (VHH, Llama sdAb made in E. coli with a C-terminal 6xHis tag; also called sdAb AS01274) VHH: QVQLVESGGGLVQPGGSLRLSCVASGSIASIATMAWYRQAPGQQRELVAGITRGGSTKYADSVKGRFTISRDNAKNTLYLQMNSLKPDDTAVYYCTDYSRKYYQDYWGQGTQVTVSS
90
AS01299VH3a-A49 (VHH, Humanized variant of AS01299, C-terminal 6xHis tag) VHH: EVQLVESGGGLVQPGGSLRLSCAASGSIFSIATMAWYRQAPGKGLELVSGITRSGSTNYRDSVKGRFTISRDNSKNTMYLQMNSLRAEDTAVYYCTDYSSRYYHDYWGQGTLVTVSS
2400

I would be grateful if you could share the reported Kd for AS01274VHa (VHH, Humanized variant of AS01274, C-terminal 6xHis tag) VHH: EVQLVESGGGLVQPGGSLRLSCAASGSIASIATMAWYRQAPGKGLELVAGITRGGSTKYADSVKGRFTISRDNSKNTLYLQMNSLRAEDTAVYYCTDYSRKYYQDYWGQGTLVTVSS .
130
